Hello, the source for this data is a melting point compilation (Tetko et al.), in case you need it.

Recorded melting point values for a group of compounds are listed next.

| COMPOUND | melting point |
| --- | --- |
| c1ccc(NC2CCN(c3ccncc3)CC2)cc1 | 145 to 147 °C |
| NS(=O)(=O)c1ccc(Cl)cn1 | 125 to 127 °C |
| O=C(O)CCn1ncc2ccc([N+](=O)[O-])cc21 | 151 to 153 °C |

Turning now to a further compound:
Task: Given the entry CC(C)Cc1ccc(C2(C)NC(=O)NC2=O)cc1 (stereo not drawn) , report its measured melting point.
Output: 178 to 180 °C

---

REPORTED_ENDPOINT: melting point

| MOLECULE | RESULT |
| --- | --- |
| CS(=O)c1ccccc1N (stereo not drawn) | 156 to 158 °C |
| CN(CCCC(=O)O)S(=O)(=O)c1ccc(F)cc1 | 74 to 76 °C |
| COCCNS(=O)(=O)c1ccc(Cl)c(C(=O)O)c1 | 142 to 144 °C |
| Cc1nc(N)n(-c2ccc(C#N)cc2)n1 | 270 to 272 °C |

Task: Given the entry `O=C(O)CNc1ccc(C(=O)O)cc1` , report its measured melting point.
Output: 266 to 268 °C

Task: Would you mind doing `Nc1cc(-c2cccc(Cl)c2)n[nH]1` as well?
Output: 130 to 132 °C

Task: Would you mind doing `CC(C)Cn1ncnc1CO` as well?
Output: 92 to 94 °C

Task: Would you mind doing `Cc1ccc(-n2cc(C(=O)O)c(-c3ccccc3)n2)cc1` as well?
Output: 194 to 196 °C

Task: Would you mind doing `N#Cc1ccccc1OCc1ccc(C(=O)O)o1` as well?
Output: 145 to 147 °C

Task: Would you mind doing `NCc1nc(-c2cccs2)no1` as well?
Output: 141 to 143 °C

Task: Would you mind doing CC(NS(=O)(=O)c1cnn(C)c1)C(=O)O (stereo not drawn) as well?
Output: 169 to 171 °C

Task: Would you mind doing `CC(=O)Nc1ccc(CCN)cc1` as well?
Output: 121 to 123 °C

Task: Would you mind doing `NC(=O)CCn1c(S)nnc1-c1cccs1` as well?
Output: 219 to 221 °C

---

Recorded melting point values for a group of compounds are listed next.

Recorded melting point, per entry:
| COMPOUND | melting point |
| --- | --- |
| CC(C)NC(=O)c1ccccc1N | 148 to 150 °C |
| Nc1cc(-c2cccs2)nn1CCO | 155 to 157 °C |
| Cc1cc(N)c2c(n1)CCCC2 | 121 to 123 °C |

Task: Given the entry `CON(C)S(=O)(=O)c1cc([N+](=O)[O-])ccc1Cl` , report its measured melting point.
Output: 123 to 125 °C

Task: Would you mind doing `Nc1ccn(-c2ncccc2Cl)n1` as well?
Output: 89 to 91 °C

Task: Would you mind doing `COc1ccc(C)c(N)c1` as well?
Output: 43 to 46 °C

Task: Would you mind doing COc1ccc(N2CC(C(=O)O)CC2=O)cc1 (centres undefined) as well?
Output: 171 to 173 °C

Task: Would you mind doing NNC(=O)C1COc2ccccc2O1 (centres undefined) as well?
Output: 111 to 113 °C

---

Recorded melting point values for a group of compounds are listed next.

| COMPOUND | melting point |
| --- | --- |
| Cc1ccc([N+](=O)[O-])cc1NC(=O)CCCl | 155 to 157 °C |

Task: Given the entry `CC1(C)NC(=O)N(Cc2ccc(Cl)nc2)C1=O` , report its measured melting point.
Output: 127 to 129 °C

Task: Would you mind doing `CCOC(=O)Cn1ncc2ccccc21` as well?
Output: 34 to 36 °C

Task: Would you mind doing CC(O)(C(=O)O)c1ccc(Cl)cc1 (configuration not stated) as well?
Output: 129 to 131 °C
